Molecular target: T1, mouse VTCN1 protein (Mus musculus, UniProt Q7TSP5)
T1 construct: His
T1 sequence (Q7TSP5 25-257): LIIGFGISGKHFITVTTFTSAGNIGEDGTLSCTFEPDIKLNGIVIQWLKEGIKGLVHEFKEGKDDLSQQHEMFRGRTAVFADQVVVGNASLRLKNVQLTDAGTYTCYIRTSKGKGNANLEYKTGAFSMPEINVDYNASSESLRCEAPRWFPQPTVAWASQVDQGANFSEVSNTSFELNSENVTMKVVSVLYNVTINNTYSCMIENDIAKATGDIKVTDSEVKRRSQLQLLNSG
Assay: Affinity by OCTET, mouse VTCN1
Format: binding
Conditions: Table 12
Experimental Endpoint: mouse k(on)
I'd appreciate a reply containing only the number, no unit.

Some molecules with known mouse k(on) results, for comparison:
13H9_44D2: fully human VTCN1 antibody; VH SEQ ID NO: 272, VL SEQ ID NO: 276 (antibody, V domains shown) VH: QVQLQESGPGLVKPSETLSLTCTVSGGSISSYYWSWIRQPPGKGLEWIGYIYYSGSTNNNPSLKSRVTISVDTSKNQFSLKLISVTAADTAVYYCARVYNNYDWGFDYWGQGTLVTVSS VL: EIVMTQSPATLSVSPGERATLSCRASQSVSSNLAWYQQKPGQAPRLLIYGASTRATGIPARFSGSGSGTEFTLTIRSLQSEDFAVYYCQQYHNWPLTFGGGTKLEIK: 2.16E+06
4C7_63A1: fully human VTCN1 antibody; VH SEQ ID NO: 248, VL SEQ ID NO: 252 (antibody, V domains shown) VH: QVQLQESGPGLVKPSGTLSLTCAVSGGSISSSNWWSWVRQPPGKGLEAIGEIYHSGNTNYNPSLKSRVTISVDKSKNQFSLKLSSVTAADTAIYYCARDGYSSGWYWGYFDYWGQGTLVTVSS VL: EIVMTQSPATLSVSPGERATLSCRASQSVNSNLAWYQQKPGQAPWLLIYGASTRATGIPARFSGSGSGTEFTLTISSLQSEDFAVYYCQQYNHWPYTFGQGTKLEIK: 9.07E+04

Note: attention shifts to another entry.
Input line: What value of mouse k(on) has been recorded for this entry: 12B5_44B1: fully human VTCN1 antibody; VH SEQ ID NO: 264, VL SEQ ID NO: 268 (antibody, V domains shown) VH: QVQLVQSGAEVKKPGSSMKVSCKASGDTFSSYAISWVRQAPGQGLEWMAGIIPVFGTAHNAQKFQGRVTITADKSTSTAYMELSSLRSEDTAVYYCTRGGPYFDYWGQGTLVTVSS VL: EIVMTQSPATLSVSPGERAALSCRASQSVSSNLAWYQQKPGQAPRLLIYGVSTRATGIPDRFNGSGSGTEFTLTISSLQSEDFGAYYCQQYKKWPFIFGPGTKLEIK
Output line: 2.15E+05
